# procedure summary: Components of the Cytosolic LPS Sensing Pathway: Gene Identification via Genome-wide siRNA Screen
# assay context: RAW264.7 macrophages, IL-1a HTRF, actives lie on both sides, screened at 100 nM (by protocol), cells primed 5 h with Pam3CSK4 first
Hit rate of the full screen: of about 53,000 sequences, about 3,700 (7%) were called active. The entries come from a sample that favours actives as a whole.
In this section, each of the sequences is paired with its reported z-score.
Provide a numeric answer; units are not to be included.

Worked cases, z-score given:
GCACUGGACUUAGGAUGGUTT against Ankrd22	2.2
GGAUGCAUUUUUUCUGGAATT against Nop53	0.85
CCAGAUCGGGAAAAAGGGUTT against Tsn	-2.04
GCCGGAAACUCAAGAUAGCTT against F830208F22Rik	-0.74

// next item, z-score requested
Q: What value of z-score has been recorded for this entry: CCACGGGAGACAAGAUUCUTT against Hmbs
Result: 3.18

----------
Below, each entry is listed with its recorded z-score.
# procedure summary: Components of the Cytosolic LPS Sensing Pathway: Gene Identification via Genome-wide siRNA Screen;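 note: robust z of the log signal after scaling to non-targeting control siRNA wells of the plate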
# assay context: RAW264.7 macrophages, IL-1a HTRF, actives lie on both sides, screened at 100 nM (by protocol), cells primed 5 h with Pam3CSK4 first
Among all 53,000 sequences or so, about 3,700 (7%) were called active. Only a selection was taken, and actives are over-represented in it overall.
Output: the number by itself.

Below, 5 sequences whose answers are already recorded.
GGAAGAUGUAUUCUUCUCCTT against Gemin4	0.499
CCCACAGCUCUGACAUUUUTT against Fbxo6	-0.315
GCAGUAAGCUUUUGCUAAATT against Zfp334	1.26
GGAAAACAAGAGGUGAUCUTT against Bfar	-1.62
GGCGAUGGAAAGACUGCACTT against Hus1b	0.311

Let's switch to this sequence now.
Q: GET /values?readout=z-score&item= GGCGAAAUGGUAAACCGAGTT against Adgrg2
Result: 0.0183

----------
# procedure summary: Components of the Cytosolic LPS Sensing Pathway: Gene Identification via Genome-wide siRNA Screen;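 note: robust z of the log signal after scaling to non-targeting control siRNA wells of the plate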
# assay context: RAW264.7 macrophages, IL-1a HTRF, actives lie on both sides, screened at 100 nM (by protocol), cells primed 5 h with Pam3CSK4 first
The campaign covered roughly 53,000 sequences. About 3,700 (7%) were called active.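 The calls were made as follows: active = gene knockdowns whose robust z-score for IL-1 alpha signal is at least 2 or at most -2, so actives lie on both sides; inactive = the rest.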 The full list was thinned out, with actives kept by preference.
Permitted responses: active, inactive

GGCAAAAAGAUAGGAGCUGTT against Txn1	inactive
GGUGAACCUCAAUAAUAUCTT against Tmod4	inactive
CCAAUUACCUGAAUAAAGCTT against Epb41l5	inactive
GGGUAUGCAGAAGGGAACATT against Nrap	inactive
GGAAUGUGCCUAAGUUUGGTT against Ufc1	inactive
CGUAUGAGUGCAAUACUAATT against Pcmtd1	inactive
GGUUGACUGAAUGAUGGAATT against Tcl1b3	inactive
GGACAAGUAUGAAUGUCUATT against Ptk2b	inactive
CCAAGCUACCAGGGUUUUUTT against Abcb9	active
GCACAUCGGCCUUAAGUCATT against Supt4a	inactive

Q: Check the results log: what was the call for CCAGUCAAAUAUCCAUUAGTT against Scgb2b26 ?
Result: active

Q: Field entry: GAAAAACUGCUGUUUUGGATT against Ly6g6d
Result: inactive

Q: Try this sequence too: GGACAGCUUCCGAAACUAUTT against Miox
Result: inactive

Q: Entry GGAGAAGAUUCCAGAAGCCTT against Tcf15 please
Result: inactive

Q: Try GGCCAUCUAAAAAUAGUAATT against Ccdc171 next.
Result: inactive

Q: Would you kindly repeat that for GGUCUUCAGCCCAAGAAAUTT against Dsg2 ?
Result: inactive

Q: Param item: CGCUGCCUAAACAAGAUUATT against Cacna1f
Result: active

Q: Then GGCCCAUUCAGAUCAUCCATT against Vmn1r65 ?
Result: inactive

Q: # repeat for GGGAGUGCCUGGGUUUGUATT against Dusp28
Result: active

Q: Please give the result for GGUUCGAGUCUCUUACUCUTT against Pou4f3 too.
Result: inactive

Q: Please answer likewise for GGUCUAUGAGAUGUUUUCUTT against Cyp2a4
Result: active

Q: Also GCCAUUUGUCCACAAAAUGTT against Ces2g , if possible.
Result: active

----------
# procedure summary: Components of the Cytosolic LPS Sensing Pathway: Gene Identification via Genome-wide siRNA Screen;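 note: robust z of the log signal after scaling to non-targeting control siRNA wells of the plate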
# assay context: RAW264.7 macrophages, IL-1a HTRF, actives lie on both sides, screened at 100 nM (by protocol), cells primed 5 h with Pam3CSK4 first
About 3,700 (7%) of roughly 53,000 sequences were called active.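 Rule for the calls: active = gene knockdowns whose robust z-score for IL-1 alpha signal is at least 2 or at most -2, so actives lie on both sides; inactive = the rest.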 The sample as a whole holds a higher share of actives than the screen did.
In this exercise, the only acceptable responses are True (active), False (inactive)

GCCUUGAAAUGUCUGUAGCTT against Nkiras1	False
GGUCGACAGACUCUUGCAUTT against Mylk3	False
GGCUCUGGUCCAAGAAAUGTT against C4b	False

Q: Tell me the recorded outcome of this test for GAGAAAGAUAAUUACCUGGTT against Tnfrsf22 .
Result: False

Q: Also GCAACUCAACCUCAACCAUTT against Lrrc8e , if possible.
Result: False

Q: Same question for CCAUUCUCUUUACCUCAAUTT against Rdh12 please.
Result: False

Q: Same thing, different sequence: GGUGGUUUAACUGGAUAUUTT against Paip2b
Result: False

Q: # iterate: GGAUGCUAUAAAGAAUGCCTT against Prpf39
Result: False

Q: Can you check CCCAGUGGUUUUAAAGCAUTT against Commd3 next?
Result: False

Q: Cool, now GGUUAUUGAUGUGACGAUGTT against Rem2
Result: False

Q: Now try GGCUUUAUAUGAAACUCCUTT against Acrv1 .
Result: True

----------
# procedure summary: Components of the Cytosolic LPS Sensing Pathway: Gene Identification via Genome-wide siRNA Screen;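 note: robust z of the log signal after scaling to non-targeting control siRNA wells of the plate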
# assay context: RAW264.7 macrophages, IL-1a HTRF, actives lie on both sides, screened at 100 nM (by protocol), cells primed 5 h with Pam3CSK4 first
The campaign covered roughly 53,000 sequences. About 3,700 (7%) were called active. Many of the other results were omitted from the sample, so actives are more common in it than they were.
property name: z-score
Please give the numeric answer without any surrounding text.

Q: Returns the measured z-score for the input sequence. Input: GCAGUAAGUCAGUGCCUCATT against Atxn1
Result: 1.51

Q: Same for GCAGUUACAGGAAAUCGAGTT against Cdr2
Result: -0.746

Q: Now give it for GGAUCAUUUGAAAUUGCUGTT against Dmac2l too.
Result: 2.88

Q: And for GGAGGAUAUAAAAAAGAAGTT against L2hgdh ?
Result: 0.00317

Q: Another sequence: GGGCCUUAAUUUUCCUUUUTT against Podxl
Result: -0.107

Q: And the next one, GGUGCACACCAAUGUUCUGTT against Efemp2 ?
Result: 2.03

Q: Next up: CGCAGAUAAUAUCUUUGUCTT against Olfr461
Result: 0.389

Q: Follow-up entry: CCAUUUGAUGACAGUAAUATT against Olfr178
Result: 1.03

Q: Continue with GUACAUUUGCUGGAGCCUCTT against Hps6
Result: 0.395

Q: Continue with GCUUUUUGACUACGUAGCCTT against Hkdc1
Result: 0.0141

meta.source: PubChem BioAssay AID1508600
